- PROTOCOL_NOTES: Cytotoxicity against mouse NIH/3T3 cells
- Type: cell-based, NIH3T3
- CONDITION_DETAILS: read-out: TC50 (the source's name)
Documented CC50 across a set of compounds
MEASURED_ATTRIBUTE: CC50

test_smiles=CCOC(=O)CN(C)CC#Cc1ccc2ncnc(Nc3ccc(OCc4cccc(F)c4)c(Cl)c3)c2c1 measured_attribute=CC50 experimental_result="> 50 µM"
test_smiles=CC(C)CC#Cc1cc2ncnc(Nc3ccc(OCc4cccc(F)c4)c(Cl)c3)c2s1 measured_attribute=CC50 experimental_result="> 50 µM"
test_smiles=CC(C)(C)OC(=O)N1CCC[C@H]1C#Cc1cc2ncnc(Nc3ccc(OCc4cccc(F)c4)c(Cl)c3)c2s1 measured_attribute=CC50 experimental_result="> 100 µM"

* * *

- Tested on: Trypanosoma brucei brucei
- PROTOCOL_NOTES: Antitrypanosomal activity against Trypanosoma brucei brucei 427 at 5 uM after 48 hrs by presto blue dye based fluorescence assay relative to control
- Format: functional
MEASURED_ATTRIBUTE: Activity

test_smiles=CC(C)(C)CC#Cc1cc2c(Nc3ccc(OCc4cccc(F)c4)c(Cl)c3)ncnc2s1 target_system="Trypanosoma brucei brucei" experimental_result=1%
test_smiles=Fc1cccc(COc2ccc(Nc3ncnc4cc(C#CCN5CCNCC5)sc34)cc2Cl)c1 target_system="Trypanosoma brucei brucei" experimental_result=16%
test_smiles=CCCN(CC#Cc1cc2c(Nc3ccc(OCc4cccc(F)c4)c(Cl)c3)ncnc2s1)CCC target_system="Trypanosoma brucei brucei" experimental_result=0%
test_smiles=CN(C)CC#Cc1cc2c(Nc3ccc(OCc4cccc(F)c4)c(Cl)c3)ncnc2s1 target_system="Trypanosoma brucei brucei" experimental_result=>75%
test_smiles=Fc1cccc(COc2ccc(Nc3ncnc4sc(C#CCN5CCCC5)cc34)cc2Cl)c1 target_system="Trypanosoma brucei brucei" experimental_result=>75%
test_smiles=Fc1cccc(COc2ccc(Nc3ncnc4sc(C#CCN5CCNCC5)cc34)cc2Cl)c1 target_system="Trypanosoma brucei brucei" experimental_result=>75%
test_smiles=Fc1cccc(COc2ccc(Nc3ncnc4cc(C#Cc5ccccn5)sc34)cc2Cl)c1 target_system="Trypanosoma brucei brucei" experimental_result=>75%
test_smiles=Fc1cccc(COc2ccc(Nc3ncnc4cc(C#CCN5CCOCC5)sc34)cc2Cl)c1 target_system="Trypanosoma brucei brucei" experimental_result=16%

* * *

- PROTOCOL_NOTES: Selectivity index, ratio of TC50 for human HepG2 cells to EC50 for Plasmodium falciparum D6 trophozoites
- Assay type: toxicity
- CONDITION_DETAILS: read-out: Selectivity Index
MEASURED_ATTRIBUTE: selectivity ratio

test_smiles=CC(C)(C)OC(=O)N1CCN(CC#Cc2cc3ncnc(Nc4ccc(OCc5cccc(F)c5)c(Cl)c4)c3s2)CC1 experimental_result="> 19"
test_smiles=Fc1cccc(COc2ccc(Nc3ncnc4cc(C#Cc5cn6ccnc6cn5)sc34)cc2Cl)c1 experimental_result="> 4.9"
test_smiles=CC(C)(C)OC(=O)N1CCC[C@H]1C#Cc1cc2ncnc(Nc3ccc(OCc4cccc(F)c4)c(Cl)c3)c2s1 experimental_result="> 15"
test_smiles=Fc1cccc(COc2ccc(Nc3ncnc4sc(C#CCN5CCOCC5)cc34)cc2Cl)c1 experimental_result="> 9.7"
test_smiles=COCC#Cc1cc2ncnc(Nc3ccc(OCc4cccc(F)c4)c(Cl)c3)c2s1 experimental_result="> 5.6"
test_smiles=Fc1cccc(COc2ccc(Nc3ncnc4cc(C#CCN5CCNCC5)sc34)cc2Cl)c1 experimental_result="> 15"
test_smiles=Fc1cccc(COc2ccc(Nc3ncnc4cc(C#CC5CCCC5)sc34)cc2Cl)c1 experimental_result="> 8.6"
test_smiles=Fc1cccc(COc2ccc(Nc3ncnc4sc(C#CCN5CCNCC5)cc34)cc2Cl)c1 experimental_result=20
test_smiles=CC(C)(C)CC#Cc1cc2c(Nc3ccc(OCc4cccc(F)c4)c(Cl)c3)ncnc2s1 experimental_result="> 5.6"
test_smiles=Fc1cccc(COc2ccc(Nc3ncnc4cc(C#CCN5CCOCC5)sc34)cc2Cl)c1 experimental_result="> 9.7"
test_smiles=Fc1cccc(COc2ccc(Nc3ncnc4ccc(C#CCN5CCOCC5)cc34)cc2Cl)c1 experimental_result="> 5.1"
